Test name: Evaluation of acute toxicities in mice (LD50, Bliss method)
Experimental setup: mouse, in vivo, ip; male Balb/c mice, intraperitoneal, observed 7 days; dose as amount of bufalin; read-out: half-lethal dose (LD50)
Measure: LD50 at 7 days (mg/kg)
Entry rule: numbers only, all in mg/kg.

Measured LD50 at 7 days of C[C@]12CC[C@H](O)C[C@H]1CC[C@@H]1[C@@H]2CC[C@]2(C)[C@@H](c3ccc(=O)oc3)CC[C@]12O [bufalin, 3β,14-dihydroxy-5β, 20(22)-bufadienolide] : 2

Data origin: patent US9814734B2
